The reported numbers originate from ChEMBL document CHEMBL4354848.

# Tested on: Plasmodium berghei
# Assay: Antiplasmodial activity against luciferase expressing Plasmodium berghei sporozoites infected in human HuH7 cells assessed as reduction in parasite load at 1 to 10 uM preincubated for 1 hr followed by parasite infection and measured after 46 hrs by bioluminescence assay
# Type: functional, organism-based
Activity calls are given as the source filed them. The calls are words filed in the database; no cut-off is given here.

Chemical smiles	System	Activity
CC[C@H](C)[C@H]1O[C@]2(CC[C@@H]1C)C[C@@H]1C[C@@H](C/C=C(\C)[C@@H](OC(=O)Cn3cc(COc4nc(C)c(C(=O)OC(C)C)c(-c5cccc([N+](=O)[O-])c5)n4)nn3)[C@@H](C)/C=C/C=C3\CO[C@@H]4[C@H](O)C(C)=C[C@@H](C(=O)O1)[C@]34O)O2	Plasmodium berghei	Active
CCOC(=O)c1c(C)nc(OCc2cn(CC(=O)O[C@@H]3/C(C)=C/C[C@@H]4C[C@@H](C[C@]5(CC[C@H](C)[C@@H]([C@@H](C)CC)O5)O4)OC(=O)[C@@H]4C=C(C)[C@@H](O)[C@H]5OC/C(=C\C=C\[C@@H]3C)[C@]54O)nn2)nc1-c1cc(OC)c(OC)cc1[N+](=O)[O-]	Plasmodium berghei	Active
CC[C@H](C)[C@H]1O[C@]2(CC[C@@H]1C)C[C@@H]1C[C@@H](C/C=C(\C)[C@@H](O)[C@@H](C)/C=C/C=C3\CO[C@@H]4[C@H](O)C(C)=C[C@@H](C(=O)O1)[C@]34O)O2	Plasmodium berghei	Active
CCOC(=O)c1c(C)nc(OCc2cn(CC(=O)O[C@@H]3/C(C)=C/C[C@@H]4C[C@@H](C[C@]5(CC[C@H](C)[C@@H]([C@@H](C)CC)O5)O4)OC(=O)[C@@H]4C=C(C)[C@@H](O)[C@H]5OC/C(=C\C=C\[C@@H]3C)[C@]54O)nn2)nc1-c1ccccc1	Plasmodium berghei	Active

----------
# Tested on: Plasmodium berghei
# Assay: Antiplasmodial activity against luciferase expressing Plasmodium berghei sporozoites infected in human HuH7 cells assessed as reduction in parasite load preincubated for 1 hr followed by parasite infection and measured after 46 hrs by bioluminescence assay
# Format: functional, organism-based
# Settings: Plasmodium berghei, Huh-7
Please respond with reported IC50 for every item in the list.
Give bare numbers, in nM.

Chemical smiles	Reported result
CC[C@H](C)[C@H]1O[C@]2(CC[C@@H]1C)C[C@@H]1C[C@@H](C/C=C(\C)[C@@H](O)[C@@H](C)/C=C/C=C3\CO[C@@H]4[C@H](O)C(C)=C[C@@H](C(=O)O1)[C@]34O)O2	4560
CCOC(=O)c1c(C)nc(OCc2cn(CC(=O)O[C@@H]3/C(C)=C/C[C@@H]4C[C@@H](C[C@]5(CC[C@H](C)[C@@H]([C@@H](C)CC)O5)O4)OC(=O)[C@@H]4C=C(C)[C@@H](O)[C@H]5OC/C(=C\C=C\[C@@H]3C)[C@]54O)nn2)nc1-c1ccccc1	990
CC[C@H](C)[C@H]1O[C@]2(CC[C@@H]1C)C[C@@H]1C[C@@H](C/C=C(\C)[C@@H](OC(=O)Cn3cc(COc4nc(C)c(C(=O)OC(C)C)c(-c5cccc([N+](=O)[O-])c5)n4)nn3)[C@@H](C)/C=C/C=C3\CO[C@@H]4[C@H](O)C(C)=C[C@@H](C(=O)O1)[C@]34O)O2	911

Next compound, please.
Any idea what its IC50 is? The compound is O=C1C(O)=C([C@H]2CC[C@H](c3ccc(Cl)cc3)CC2)C(=O)c2ccccc21 0.7
